# TARGET ENTITY: T1, murine IL-11 (mouse, UniProt P47873 22-199)
# T1 construct: bought from Invigate; also called mIL-11; mIL11
# T1 sequence: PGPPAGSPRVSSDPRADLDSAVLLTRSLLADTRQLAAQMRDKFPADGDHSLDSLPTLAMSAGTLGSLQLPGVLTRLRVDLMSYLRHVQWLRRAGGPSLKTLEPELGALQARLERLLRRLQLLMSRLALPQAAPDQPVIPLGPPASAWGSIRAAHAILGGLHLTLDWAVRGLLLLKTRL
# EXPERIMENTAL PROTOCOL: SPR, antibody captured, IL-11 as analyte
Criterion: Kd strictly less than 1 nM. Met: 1. Not met: -1.

BINDER	ASSIGNED CATEGORY
TPP-26318 (antibody, V domains shown, constant regions not restated) VH: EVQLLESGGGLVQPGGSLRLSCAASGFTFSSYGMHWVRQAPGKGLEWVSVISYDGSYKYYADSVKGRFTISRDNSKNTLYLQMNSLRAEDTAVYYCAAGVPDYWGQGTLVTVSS VL: QSVLTQPPSASGTPGQRVTISCTGSSSNIGAGYFVHWYQQLPGTAPKLLIYSNNERPSGVPDRFSGSKSGTSASLAISGLRSEDEADYYCAAWDDSLNGPVFGGGTKLTVL	-1
TPP-26326 (antibody, V domains shown, constant regions not restated) VH: EVQLLESGGGLVQPGGSLRLSCAASGFTFSYYGMHWVRQAPGKGLEWVSVISYDGSYKYYADSVKGRFTISRDNSKNTLYLQMNSLRAEDTAVYYCAAGVPDYWGQGTLVTVSS VL: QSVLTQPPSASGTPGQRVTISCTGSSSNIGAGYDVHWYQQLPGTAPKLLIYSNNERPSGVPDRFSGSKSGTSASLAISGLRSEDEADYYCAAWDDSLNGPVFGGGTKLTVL	-1
TPP-26320 (antibody, V domains shown, constant regions not restated) VH: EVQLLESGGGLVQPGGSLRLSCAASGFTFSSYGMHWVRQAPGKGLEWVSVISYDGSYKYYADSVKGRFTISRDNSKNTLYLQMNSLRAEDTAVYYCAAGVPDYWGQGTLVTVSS VL: QSVLTQPPSASGTPGQRVTISCTGSSSNIGAGYDVHWYQQLPGTAPKLLIYSNEERPSGVPDRFSGSKSGTSASLAISGLRSEDEADYYCAAWDDSLNGPVFGGGTKLTVL	1
TPP-26307 (antibody, V domains shown, constant regions not restated) VH: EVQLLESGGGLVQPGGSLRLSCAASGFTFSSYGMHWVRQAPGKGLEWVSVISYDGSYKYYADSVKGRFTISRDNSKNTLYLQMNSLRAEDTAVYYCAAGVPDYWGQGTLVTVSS VL: QSVLTQPPSASGTPGQRVTISCTGSSSNIGAGYDVHWYQQLPGTAPKLLIYSNNERPSGVPDRFSGSKSGTSASLAISGLRSEDEADYYCAAWDISLNGPVFGGGTKLTVL	-1
TPP-26330 (antibody, V domains shown, constant regions not restated) VH: EVQLLESGGGLVQPGGSLRLSCAASGFTFSFYGMHWVRQAPGKGLEWVSVISYDGSYKYYADSVKGRFTISRDNSKNTLYLQMNSLRAEDTAVYYCAAGVPDYWGQGTLVTVSS VL: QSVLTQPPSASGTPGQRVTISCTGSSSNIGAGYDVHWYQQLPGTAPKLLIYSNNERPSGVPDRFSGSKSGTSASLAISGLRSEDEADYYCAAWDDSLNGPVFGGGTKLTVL	-1

Numbers sourced from patent US20240317847A1.
